Data provenance: patent US6300350A

procedure details: Plasma triglyceride levels in rats
Type: in vivo
condition label: plasma; 1 mg/kg/PO daily for two weeks; normal rat 75-175 mg/dl
Here, each record is paired with measured [Triglyceride] data.

| compound | [Triglyceride] [mg/dL] |
| --- | --- |
| CC1(C)CCOc2ccc(C(=O)/C=C/c3ccc(C(=O)O)cc3)cc21 [RAR Agonist 6] | 140 |
| CC1=C(/C=C/C(C)=C/C=C/C(C)=C/C(=O)O)C(C)(C)CCC1 [RAR Agonist 4, All-trans retinoic acid] | 182 |
| CC1=C(/C=C/C(C)=C/C=C/C(C)=C\C(=O)O)C(C)(C)CCC1 [RAR Agonist 8, reference compound] | 178 |
| CCCCCCc1cc2c(cc1/C=C/c1ccc(C(=O)O)cc1)C(C)(C)CCC2(C)C [RAR Agonist 3] | 92 |
| CCCCCC(=O)c1cc2c(cc1/C=C/c1ccc(C(=O)O)cc1)C(C)(C)CCC2(C)C [RAR Agonist 5] | 119 |
| CC1=C(/C=C/C(C)=C\C=C\C(C)=C\C(=O)O)C(C)(C)CCC1 [RAR Agonist 10, reference compound] | 273 |

* * *

Items are presented alongside their recorded EC50.
measurement target: RARβ (Homo sapiens, UniProt P10826)
Sequence (P10826 whole entry): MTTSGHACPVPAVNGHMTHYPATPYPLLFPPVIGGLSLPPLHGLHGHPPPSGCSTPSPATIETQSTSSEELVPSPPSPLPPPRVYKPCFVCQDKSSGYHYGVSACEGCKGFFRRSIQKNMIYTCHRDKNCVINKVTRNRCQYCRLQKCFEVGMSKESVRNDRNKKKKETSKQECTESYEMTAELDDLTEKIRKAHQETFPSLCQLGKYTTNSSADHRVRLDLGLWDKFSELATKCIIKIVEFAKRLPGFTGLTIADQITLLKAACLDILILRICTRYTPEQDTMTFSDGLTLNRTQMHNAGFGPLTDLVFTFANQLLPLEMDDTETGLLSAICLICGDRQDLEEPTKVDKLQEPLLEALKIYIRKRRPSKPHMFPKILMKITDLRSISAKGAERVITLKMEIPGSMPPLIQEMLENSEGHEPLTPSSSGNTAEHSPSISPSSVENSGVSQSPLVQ
procedure details: Transactivation, RARβ
Format: cell-based
condition label: Table III
endpoint: EC50 (nM)

| given smiles | units text | reported result |
| --- | --- | --- |
| CCCCCC(=O)c1cc2c(cc1/C=C/c1ccc(C(=O)O)cc1)C(C)(C)CCC2(C)C | nM | 10000 |
| CC1(C)CCOc2ccc(C(=O)/C=C/c3ccc(C(=O)O)cc3)cc21 | nM | 16 |
| O=C(O)c1ccc2cc(-c3ccc(O)c(C45CC6CC(CC(C6)C4)C5)c3)ccc2c1 | nM | 2300 |
